Provenance of the data: the kinase profiling compilation of Christmann-Franck et al. (2016)

# System: PIK3CA (human), P42336 [I800L]
# Sequence (P42336 whole entry I800L, looked up): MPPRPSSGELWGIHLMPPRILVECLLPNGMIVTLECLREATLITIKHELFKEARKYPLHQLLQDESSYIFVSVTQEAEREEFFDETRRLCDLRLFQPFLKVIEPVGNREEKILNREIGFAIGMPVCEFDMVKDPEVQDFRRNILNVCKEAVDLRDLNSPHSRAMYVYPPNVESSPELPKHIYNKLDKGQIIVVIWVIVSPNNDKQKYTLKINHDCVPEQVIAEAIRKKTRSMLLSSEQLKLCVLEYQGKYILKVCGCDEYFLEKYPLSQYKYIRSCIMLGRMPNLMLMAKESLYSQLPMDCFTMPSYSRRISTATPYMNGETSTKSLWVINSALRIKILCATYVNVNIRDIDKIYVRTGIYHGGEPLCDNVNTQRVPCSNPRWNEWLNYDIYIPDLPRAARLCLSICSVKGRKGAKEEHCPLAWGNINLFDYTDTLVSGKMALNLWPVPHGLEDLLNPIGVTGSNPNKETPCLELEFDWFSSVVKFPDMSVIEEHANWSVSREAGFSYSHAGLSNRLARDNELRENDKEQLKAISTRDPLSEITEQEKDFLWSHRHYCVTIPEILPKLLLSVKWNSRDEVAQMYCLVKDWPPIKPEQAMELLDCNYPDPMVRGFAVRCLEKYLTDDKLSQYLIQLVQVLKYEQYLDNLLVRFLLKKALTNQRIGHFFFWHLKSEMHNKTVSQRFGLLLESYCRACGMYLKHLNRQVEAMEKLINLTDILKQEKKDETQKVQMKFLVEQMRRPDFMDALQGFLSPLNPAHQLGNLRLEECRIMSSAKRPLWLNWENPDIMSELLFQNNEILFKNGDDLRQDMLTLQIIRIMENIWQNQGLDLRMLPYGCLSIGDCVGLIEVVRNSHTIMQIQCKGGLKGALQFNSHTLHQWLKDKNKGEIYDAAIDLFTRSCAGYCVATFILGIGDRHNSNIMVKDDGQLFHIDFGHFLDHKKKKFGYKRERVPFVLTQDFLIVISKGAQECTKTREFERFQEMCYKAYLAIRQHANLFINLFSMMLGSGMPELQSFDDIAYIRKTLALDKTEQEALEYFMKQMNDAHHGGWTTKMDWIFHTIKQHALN
# Test details: KINOMEscan competition binding
# Settings: compound 10.0 µM
Readout type: kinase still bound, per cent of control (%)

1. CCN1CCN(Cc2ccc(NC(=O)c3ccc(C)c(/C=C/c4cnc5[nH]ccc5c4OC)c3)cc2C(F)(F)F)CC1    100
2. Cc1ccc2nc(NCCN)c3ncc(C)n3c2c1    100
3. CC(=O)c1c(C)c2cnc(Nc3ccc(N4CCNCC4)cn3)nc2n(C2CCCC2)c1=O    6
4. C=CC(=O)Nc1ccc(C(=O)c2sc(Nc3ccc(N4CCN(C)CC4)cc3OC)nc2N)cc1    83
5. Cc1ccc(NC(=O)c2cccc(C(C)(C)C#N)c2)cc1Nc1ccc2ncn(C)c(=O)c2c1    100
6. CCCS(=O)(=O)Nc1ccc(F)c(C(=O)c2c[nH]c3ncc(-c4ccc(Cl)cc4)cc23)c1F    93
7. NC(=O)Nc1cc(-c2cccc(F)c2)sc1C(=O)N[C@@H]1CCCNC1    100
8. C=CC(=O)Nc1cccc(Nc2nc(N[C@H]3CC[C@H](N(C)C)CC3)nc3c2ncn3C(C)C)c1    100
9. CCN1CCN(C(=O)Cc2ccc(Nc3ncc(F)c(Nc4ccc(C(=O)Nc5ccccc5Cl)cc4)n3)cc2)CC1    88

* * *

Form field: kinase still bound, per cent of control (one value per entry).
# Assay target: STK38L (human) (UniProt Q9Y2H1)
# Sequence (Q9Y2H1 whole entry, looked up): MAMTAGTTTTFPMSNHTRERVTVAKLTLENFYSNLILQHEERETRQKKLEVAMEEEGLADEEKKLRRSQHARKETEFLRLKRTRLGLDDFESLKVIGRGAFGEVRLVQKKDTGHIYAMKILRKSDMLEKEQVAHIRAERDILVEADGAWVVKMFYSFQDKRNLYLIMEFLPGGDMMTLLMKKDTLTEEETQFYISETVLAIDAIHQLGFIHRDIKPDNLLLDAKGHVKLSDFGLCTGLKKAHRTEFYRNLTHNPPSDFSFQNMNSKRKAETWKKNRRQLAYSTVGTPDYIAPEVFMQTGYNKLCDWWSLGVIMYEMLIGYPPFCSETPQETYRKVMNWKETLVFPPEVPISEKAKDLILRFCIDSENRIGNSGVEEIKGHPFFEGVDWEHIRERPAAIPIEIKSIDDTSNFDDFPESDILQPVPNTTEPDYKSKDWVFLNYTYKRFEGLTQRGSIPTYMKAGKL
# Test details: KINOMEscan competition binding
# Settings: compound 10.0 µM
Readout type: kinase still bound, per cent of control (%)

1. OCCCNc1cc(-c2ccnc(Nc3cccc(Cl)c3)n2)ccn1    100
2. O=C1Nc2ccc(I)cc2/C1=C/c1cc(Br)c(O)c(Br)c1    31
3. O=C(O)c1ccc(Nc2ncc3c(n2)-c2ccc(Cl)cc2C(c2c(F)cccc2F)=NC3)cc1    100
4. C=CC(=O)Nc1cccc(Oc2nc(Nc3ccc(N4CCN(C)CC4)cc3OC)ncc2Cl)c1    100
5. Nc1ccc(-c2ccc3ncc4ccc(=O)n(-c5cccc(C(F)(F)F)c5)c4c3c2)cn1    100
6. CCCS(=O)(=O)Nc1ccc(F)c(C(=O)c2c[nH]c3ncc(-c4ccc(Cl)cc4)cc23)c1F    100
7. O=C(NOC[C@H](O)CO)c1ccc(F)c(F)c1Nc1ccc(I)cc1F    100
8. C=CC(=O)Nc1cccc(Nc2nc(N[C@H]3CC[C@H](N(C)C)CC3)nc3c2ncn3C(C)C)c1    41
9. N#Cc1c(NC(=O)c2cccc3ccccc23)sc2c1CCCC2    98
10. CCC(=O)N1CCN(c2ccc(-n3c(=O)ccc4cnc5ccc(-c6cnc7ccccc7c6)cc5c43)cc2C(F)(F)F)CC1    94
11. CCOc1cc2ncc(C#N)c(Nc3ccc(OCc4ccccn4)c(Cl)c3)c2cc1NC(=O)/C=C/CN(C)C    100
12. C[C@@H](Oc1cc(-n2cnc3ccc(CN4CCN(C)CC4)cc32)sc1C(N)=O)c1ccccc1C(F)(F)F    100
13. Cc1ccc2nc(NCCN)c3ncc(C)n3c2c1    100
14. Cc1ccc(NC(=O)c2cccc(C(C)(C)C#N)c2)cc1Nc1ccc2ncn(C)c(=O)c2c1    100
15. COc1cc(C(=O)NC2CCN(C)CC2)ccc1Nc1ncc2c(n1)N(C1CCCC1)CCC(=O)N2C(C)C    100
16. COc1cc(N2CCN(C)CC2)ccc1Nc1nc(N)c(C(=O)c2c(Cl)cccc2Cl)s1    84
17. CCN1CCN(Cc2ccc(Nc3ncc4c(n3)N(C)c3ccccc3C(=O)N4C)cc2C(F)(F)F)CC1    90
18. CN(C)C/C=C/C(=O)Nc1cccc(Nc2ncc3c(n2)N(C)c2ccccc2C(=O)N3C)c1    54
19. C=CC(=O)Nc1cc(NC(=O)c2ccc(C)c(NC(=O)c3ccno3)c2)cc(C(F)(F)F)c1    88
20. Cc1cc([C@@H](C)Nc2ccccc2C(=O)O)c2nc(N3CCOCC3)cc(=O)n2c1    94

* * *

Reported kinase still bound, per cent of control is given for each of the following compounds.
# Assay target: EPHA1 (human) (UniProt P21709)
# Sequence (P21709 whole entry, looked up): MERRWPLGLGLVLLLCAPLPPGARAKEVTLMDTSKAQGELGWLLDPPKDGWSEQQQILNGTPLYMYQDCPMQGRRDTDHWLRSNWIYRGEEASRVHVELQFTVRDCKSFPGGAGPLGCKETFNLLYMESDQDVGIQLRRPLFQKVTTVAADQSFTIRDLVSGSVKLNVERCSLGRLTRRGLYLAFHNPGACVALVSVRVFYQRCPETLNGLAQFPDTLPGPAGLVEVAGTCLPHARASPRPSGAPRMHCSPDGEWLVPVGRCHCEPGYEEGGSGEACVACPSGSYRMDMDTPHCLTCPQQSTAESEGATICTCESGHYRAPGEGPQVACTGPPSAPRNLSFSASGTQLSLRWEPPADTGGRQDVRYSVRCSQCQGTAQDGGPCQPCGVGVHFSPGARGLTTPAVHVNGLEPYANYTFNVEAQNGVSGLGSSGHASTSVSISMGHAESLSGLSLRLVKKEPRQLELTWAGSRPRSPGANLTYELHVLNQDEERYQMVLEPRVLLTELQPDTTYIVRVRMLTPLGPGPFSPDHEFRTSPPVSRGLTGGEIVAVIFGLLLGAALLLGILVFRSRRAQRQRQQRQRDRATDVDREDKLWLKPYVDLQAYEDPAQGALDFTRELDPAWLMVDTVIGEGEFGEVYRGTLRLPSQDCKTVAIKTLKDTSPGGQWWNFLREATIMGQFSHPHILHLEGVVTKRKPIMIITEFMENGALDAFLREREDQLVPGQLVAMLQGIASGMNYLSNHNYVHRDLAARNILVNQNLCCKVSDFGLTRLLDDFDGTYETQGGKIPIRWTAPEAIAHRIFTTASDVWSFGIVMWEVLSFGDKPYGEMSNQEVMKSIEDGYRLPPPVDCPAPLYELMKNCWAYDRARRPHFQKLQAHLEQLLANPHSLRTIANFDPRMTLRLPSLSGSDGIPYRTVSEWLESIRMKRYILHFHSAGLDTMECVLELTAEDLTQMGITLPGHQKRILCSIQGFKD
# Test details: KINOMEscan competition binding
# Settings: compound 10.0 µM
Readout type: kinase still bound, per cent of control (%)

1. Cc1ccc2nc(NCCN)c3ncc(C)n3c2c1    79
2. C[C@@H](Oc1cc(-n2cnc3ccc(CN4CCN(C)CC4)cc32)sc1C(N)=O)c1ccccc1C(F)(F)F    94
3. Cn1c(=O)n(-c2ccc(C(C)(C)C#N)cc2)c2c3cc(-c4cnc5ccccc5c4)ccc3ncc21    100
4. O=C1Nc2ccc(I)cc2/C1=C/c1cc(Br)c(O)c(Br)c1    98
5. COc1cc(N2CCN(C)CC2)ccc1Nc1nc(N)c(C(=O)c2c(Cl)cccc2Cl)s1    100
6. Nc1ccc(-c2ccc3ncc4ccc(=O)n(-c5cccc(C(F)(F)F)c5)c4c3c2)cn1    93
7. CCC(=O)N1CCN(c2ccc(-n3c(=O)ccc4cnc5ccc(-c6cnc7ccccc7c6)cc5c43)cc2C(F)(F)F)CC1    62
8. CCN1CCN(Cc2ccc(Nc3ncc4c(n3)N(C)c3ccccc3C(=O)N4C)cc2C(F)(F)F)CC1    61
9. COc1cc(C(=O)NC2CCN(C)CC2)ccc1Nc1ncc2c(n1)N(C1CCCC1)CCC(=O)N2C(C)C    100
10. C=CC(=O)Nc1cc(NC(=O)c2ccc(C)c(NC(=O)c3ccno3)c2)cc(C(F)(F)F)c1    99
11. C=CC(=O)Nc1cccc(Nc2nc(N[C@H]3CC[C@H](N(C)C)CC3)nc3c2ncn3C(C)C)c1    72
12. COc1cc(C(=O)NC2CCN(C)CC2)ccc1Nc1ncc2c(n1)N(C1CCCC1)C(C)CC(=O)N2C (centres undefined)    100
13. CN(C)C/C=C/C(=O)Nc1cccc(Nc2ncc3c(n2)N(C)c2ccccc2C(=O)N3C)c1    55
14. Cc1ccc(C(=O)Nc2cccc(C(F)(F)F)c2)cc1Nc1cncc(C(N)=O)c1    100
15. C=CC(=O)Nc1cccc(Oc2nc(Nc3ccc(N4CCN(C)CC4)cc3OC)ncc2Cl)c1    100
16. O=C(O)c1ccc(Nc2ncc3c(n2)-c2ccc(Cl)cc2C(c2c(F)cccc2F)=NC3)cc1    15
17. OCCCNc1cc(-c2ccnc(Nc3cccc(Cl)c3)n2)ccn1    100
18. N#Cc1c(NC(=O)c2cccc3ccccc23)sc2c1CCCC2    85
19. CCOc1cc2ncc(C#N)c(Nc3ccc(OCc4ccccn4)c(Cl)c3)c2cc1NC(=O)/C=C/CN(C)C    100

* * *

# Assay target: MAP3K3 (human) (UniProt Q99759)
# Sequence (Q99759 whole entry, looked up): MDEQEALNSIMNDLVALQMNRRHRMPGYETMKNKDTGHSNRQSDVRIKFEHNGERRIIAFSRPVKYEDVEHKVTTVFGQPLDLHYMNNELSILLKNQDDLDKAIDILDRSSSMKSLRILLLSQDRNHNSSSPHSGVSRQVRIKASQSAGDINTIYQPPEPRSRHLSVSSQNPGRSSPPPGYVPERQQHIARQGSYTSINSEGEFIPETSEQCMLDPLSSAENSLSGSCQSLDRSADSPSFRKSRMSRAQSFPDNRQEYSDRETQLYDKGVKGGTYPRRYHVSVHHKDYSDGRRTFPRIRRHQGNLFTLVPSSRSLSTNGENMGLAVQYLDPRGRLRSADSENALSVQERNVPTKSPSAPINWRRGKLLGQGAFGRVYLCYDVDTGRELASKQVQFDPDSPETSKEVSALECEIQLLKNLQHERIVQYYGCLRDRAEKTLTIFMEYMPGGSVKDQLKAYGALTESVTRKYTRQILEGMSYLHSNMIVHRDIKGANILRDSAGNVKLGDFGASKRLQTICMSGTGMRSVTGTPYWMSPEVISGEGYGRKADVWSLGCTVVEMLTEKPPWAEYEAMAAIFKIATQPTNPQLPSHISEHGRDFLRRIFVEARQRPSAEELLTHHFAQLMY
# Test details: KINOMEscan competition binding
# Settings: compound 10.0 µM
Could you mark each record MET if its kinase still bound, per cent of control falls strictly under 90%, and NOT MET if it equals or exceeds it?

1. C=CC(=O)Nc1cc(NC(=O)c2ccc(C)c(NC(=O)c3ccno3)c2)cc(C(F)(F)F)c1    NOT MET
2. C=CC(=O)Nc1cccc(Nc2nc(N[C@H]3CC[C@H](N(C)C)CC3)nc3c2ncn3C(C)C)c1    MET
3. Cc1ccc2nc(NCCN)c3ncc(C)n3c2c1    NOT MET
4. O=C(O)c1ccc(Nc2ncc3c(n2)-c2ccc(Cl)cc2C(c2c(F)cccc2F)=NC3)cc1    MET
5. Cn1c(=O)n(-c2ccc(C(C)(C)C#N)cc2)c2c3cc(-c4cnc5ccccc5c4)ccc3ncc21    NOT MET

* * *

# Assay target: HCK (human) (UniProt P08631)
# Sequence (P08631 whole entry, looked up): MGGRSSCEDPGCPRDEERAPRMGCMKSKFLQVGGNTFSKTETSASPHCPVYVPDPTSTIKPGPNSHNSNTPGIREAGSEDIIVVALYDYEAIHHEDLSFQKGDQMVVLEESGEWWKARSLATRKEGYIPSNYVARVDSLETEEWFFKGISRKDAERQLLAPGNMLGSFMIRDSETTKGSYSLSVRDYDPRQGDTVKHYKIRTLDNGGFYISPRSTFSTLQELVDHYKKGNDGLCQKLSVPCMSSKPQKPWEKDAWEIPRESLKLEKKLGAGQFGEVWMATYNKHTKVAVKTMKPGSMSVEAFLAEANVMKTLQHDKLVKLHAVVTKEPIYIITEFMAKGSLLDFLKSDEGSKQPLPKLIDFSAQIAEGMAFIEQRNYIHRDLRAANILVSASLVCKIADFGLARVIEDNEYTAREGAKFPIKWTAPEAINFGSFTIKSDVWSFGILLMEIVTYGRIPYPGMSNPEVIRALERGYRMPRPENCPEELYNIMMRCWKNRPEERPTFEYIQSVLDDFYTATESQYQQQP
# Test details: KINOMEscan competition binding
# Settings: compound 10.0 µM
Response field label: string, one of t (kinase still bound, per cent of control strictly below 80%) or f.

1) COc1cc(C(=O)NC2CCN(C)CC2)ccc1Nc1ncc2c(n1)N(C1CCCC1)C(C)CC(=O)N2C (centres undefined)    f
2) O=C(NC1CC1)c1cccc(-c2ccc3c(NC(=O)C4CC4)n[nH]c3c2)c1    f
3) CCCS(=O)(=O)Nc1ccc(F)c(C(=O)c2c[nH]c3ncc(-c4ccc(Cl)cc4)cc23)c1F    t
4) Nc1ccc(-c2ccc3ncc4ccc(=O)n(-c5cccc(C(F)(F)F)c5)c4c3c2)cn1    f
5) C=CC(=O)Nc1cccc(Nc2nc(N[C@H]3CC[C@H](N(C)C)CC3)nc3c2ncn3C(C)C)c1    t
6) C=CC(=O)Nc1cccc(Oc2nc(Nc3ccc(N4CCN(C)CC4)cc3OC)ncc2Cl)c1    f
7) C=CC(=O)Nc1cc(NC(=O)c2ccc(C)c(NC(=O)c3ccno3)c2)cc(C(F)(F)F)c1    t
8) N#Cc1c(NC(=O)c2cccc3ccccc23)sc2c1CCCC2    f

* * *

# Assay target: EGFR (human) (UniProt P00533)
# Sequence (P00533 whole entry, looked up): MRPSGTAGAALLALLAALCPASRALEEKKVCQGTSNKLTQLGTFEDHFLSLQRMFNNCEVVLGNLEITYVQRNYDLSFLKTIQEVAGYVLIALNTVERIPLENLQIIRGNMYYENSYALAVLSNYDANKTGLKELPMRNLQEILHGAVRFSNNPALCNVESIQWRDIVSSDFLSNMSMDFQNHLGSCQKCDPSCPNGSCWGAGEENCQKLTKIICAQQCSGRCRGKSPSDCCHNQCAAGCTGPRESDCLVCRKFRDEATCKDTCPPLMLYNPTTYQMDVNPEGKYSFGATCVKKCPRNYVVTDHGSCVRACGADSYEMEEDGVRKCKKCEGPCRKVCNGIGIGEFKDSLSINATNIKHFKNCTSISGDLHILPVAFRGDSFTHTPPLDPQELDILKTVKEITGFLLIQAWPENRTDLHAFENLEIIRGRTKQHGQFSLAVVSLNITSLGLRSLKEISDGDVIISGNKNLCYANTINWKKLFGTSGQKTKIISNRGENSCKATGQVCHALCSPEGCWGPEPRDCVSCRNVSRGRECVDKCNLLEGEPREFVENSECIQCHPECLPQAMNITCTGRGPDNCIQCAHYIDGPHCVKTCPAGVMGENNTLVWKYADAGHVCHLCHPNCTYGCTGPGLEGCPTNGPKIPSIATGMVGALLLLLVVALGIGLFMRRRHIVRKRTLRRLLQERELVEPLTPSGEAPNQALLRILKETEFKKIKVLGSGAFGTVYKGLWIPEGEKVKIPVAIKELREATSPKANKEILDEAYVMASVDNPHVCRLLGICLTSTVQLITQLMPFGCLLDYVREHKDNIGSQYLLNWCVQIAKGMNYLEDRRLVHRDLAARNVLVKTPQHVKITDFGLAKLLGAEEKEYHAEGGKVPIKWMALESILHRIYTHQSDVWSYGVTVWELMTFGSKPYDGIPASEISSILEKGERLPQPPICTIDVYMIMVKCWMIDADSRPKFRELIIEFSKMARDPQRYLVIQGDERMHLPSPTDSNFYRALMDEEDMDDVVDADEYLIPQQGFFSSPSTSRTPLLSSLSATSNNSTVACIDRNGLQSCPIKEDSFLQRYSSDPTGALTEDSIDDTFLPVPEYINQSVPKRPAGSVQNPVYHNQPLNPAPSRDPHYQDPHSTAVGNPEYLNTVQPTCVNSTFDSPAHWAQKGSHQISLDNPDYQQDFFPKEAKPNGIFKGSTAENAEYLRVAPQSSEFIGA
# Test details: KINOMEscan competition binding
# Settings: compound 10.0 µM
Readout type: kinase still bound, per cent of control (%)

1. Cc1ccc2nc(NCCN)c3ncc(C)n3c2c1    100
2. Cc1cc([C@@H](C)Nc2ccccc2C(=O)O)c2nc(N3CCOCC3)cc(=O)n2c1    96
3. OCCCNc1cc(-c2ccnc(Nc3cccc(Cl)c3)n2)ccn1    100
4. CCCS(=O)(=O)Nc1ccc(F)c(C(=O)c2c[nH]c3ncc(-c4ccc(Cl)cc4)cc23)c1F    70
5. Cc1ccc(C(=O)Nc2cccc(C(F)(F)F)c2)cc1Nc1cncc(C(N)=O)c1    100
6. COc1cc(C(=O)NC2CCN(C)CC2)ccc1Nc1ncc2c(n1)N(C1CCCC1)CCC(=O)N2C(C)C    100
7. CN(C)C/C=C/C(=O)Nc1cccc(Nc2ncc3c(n2)N(C)c2ccccc2C(=O)N3C)c1    69
